# tgt: von Hippel-Lindau disease tumor suppressor/Androgen receptor (Homo sapiens, UniProt P10275+P40337)
# Sequence (P10275 whole entry, looked up): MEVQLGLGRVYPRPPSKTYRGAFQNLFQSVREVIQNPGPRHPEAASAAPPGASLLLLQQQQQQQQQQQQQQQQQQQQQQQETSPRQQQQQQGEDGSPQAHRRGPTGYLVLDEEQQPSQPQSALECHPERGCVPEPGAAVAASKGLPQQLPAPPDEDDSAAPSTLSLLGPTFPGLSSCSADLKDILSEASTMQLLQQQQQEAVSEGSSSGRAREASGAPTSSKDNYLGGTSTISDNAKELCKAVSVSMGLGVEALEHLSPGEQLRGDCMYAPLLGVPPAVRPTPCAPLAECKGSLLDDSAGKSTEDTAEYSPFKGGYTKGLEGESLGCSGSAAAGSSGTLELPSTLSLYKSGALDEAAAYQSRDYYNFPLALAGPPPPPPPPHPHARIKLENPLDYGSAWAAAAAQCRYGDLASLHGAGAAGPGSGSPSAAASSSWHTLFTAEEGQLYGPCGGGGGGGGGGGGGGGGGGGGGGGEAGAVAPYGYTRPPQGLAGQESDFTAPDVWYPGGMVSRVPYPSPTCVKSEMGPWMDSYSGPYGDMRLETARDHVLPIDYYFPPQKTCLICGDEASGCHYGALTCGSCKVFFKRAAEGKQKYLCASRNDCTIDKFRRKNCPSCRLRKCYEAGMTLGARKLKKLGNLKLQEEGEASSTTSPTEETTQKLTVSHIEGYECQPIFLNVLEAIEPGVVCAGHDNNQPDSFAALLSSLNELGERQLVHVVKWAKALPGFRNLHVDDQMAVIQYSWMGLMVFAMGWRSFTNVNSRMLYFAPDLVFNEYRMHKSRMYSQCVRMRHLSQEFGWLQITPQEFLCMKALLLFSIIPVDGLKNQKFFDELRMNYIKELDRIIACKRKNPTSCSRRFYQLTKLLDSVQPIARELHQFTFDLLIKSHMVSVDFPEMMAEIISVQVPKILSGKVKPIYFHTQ
# Sequence (P40337 whole entry, looked up): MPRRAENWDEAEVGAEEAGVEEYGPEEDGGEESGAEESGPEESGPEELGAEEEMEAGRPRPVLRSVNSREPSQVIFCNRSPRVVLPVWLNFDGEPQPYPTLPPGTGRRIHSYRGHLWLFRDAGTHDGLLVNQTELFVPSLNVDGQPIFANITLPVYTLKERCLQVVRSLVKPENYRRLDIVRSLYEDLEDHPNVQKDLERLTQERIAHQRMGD
# method_notes: Protac activity at E3 ubiquitin-protein ligase/AR in human LNCAP cells assessed as induction of AR degradation after 24 hrs by ELISA relative to control
# Type: cell-based
Emax values for the molecules below.

Sample records with Emax:
Challenge: Output Emax of Cc1ncsc1-c1ccc([C@H](C)NC(=O)[C@@H]2C[C@@H](O)CN2C(=O)[C@@H](NC(=O)COCCCOCCCCCOc2ccc(N3C(=S)N(c4ccc(C#N)c(C(F)(F)F)c4)C(=O)C3(C)C)cc2F)C(C)(C)C)cc1
Response given: > 71%

Challenge: Output Emax of Cc1ncsc1-c1ccc(CNC(=O)[C@@H]2C[C@@H](O)CN2C(=O)[C@@H](NC(=O)COCCCOCCCCCOc2ccc(N3C(=S)N(c4ccc(C#N)c(C(F)(F)F)c4)C(=O)C3(C)C)cc2)C(C)(C)C)cc1
Response given: > 71%

Further cases:
Challenge: Output Emax of Cc1ncsc1-c1ccc(CNC(=O)[C@@H]2C[C@@H](O)CN2C(=O)[C@@H](NC(=O)COCCCCOc2ccc(-c3ccc(N4C(=S)N(c5ccc(C#N)c(C(F)(F)F)c5)C(=O)C4(C)C)cc3)cc2)C(C)(C)C)cc1
Response given: > 71%

----------
# tgt: von Hippel-Lindau disease tumor suppressor/Androgen receptor (Homo sapiens, UniProt P10275+P40337)
# method_notes: Protac activity at E3-ubiquitin ligase/AR in human LNCAP cells assessed as time taken for maximum degradation by ELISA
# Type: cell-based
readout_type: TIME (h)
Lab book: enter the figure in h, no units written.

Challenge: Output TIME of Cc1ncsc1-c1ccc(CNC(=O)[C@@H]2C[C@@H](O)CN2C(=O)[C@@H](NC(=O)COCCCOCCCCOc2ccc(N3C(=S)N(c4ccc(C#N)c(Cl)c4)C(=O)C3(C)C)cc2)C(C)(C)C)cc1
Response given: 4

Challenge: Output TIME of Cc1ncsc1-c1ccc(CNC(=O)[C@@H]2C[C@@H](O)CN2C(=O)[C@@H](NC(=O)COCCCOCCCCOc2ccc(N3C(=S)N(c4ccc(C#N)c(C(F)(F)F)c4)C(=O)C3(C)C)cc2F)C(C)(C)C)cc1
Response given: 4

Challenge: Output TIME of Cc1ncsc1-c1ccc([C@H](C)NC(=O)[C@@H]2C[C@@H](O)CN2C(=O)[C@@H](NC(=O)COCCCOCCCCCOc2c(F)cc(N3C(=S)N(c4ccc(C#N)c(C(F)(F)F)c4)C(=O)C3(C)C)cc2F)C(C)(C)C)cc1
Response given: 4

Further cases:
Challenge: Output TIME of Cc1ncsc1-c1ccc([C@H](C)NC(=O)[C@@H]2C[C@@H](O)CN2C(=O)[C@@H](NC(=O)COCCCOCCCCCOc2ccc(N3C(=S)N(c4ccc(C#N)c(C(F)(F)F)c4)C(=O)C3(C)C)cc2F)C(C)(C)C)cc1
Response given: 4

Challenge: Output TIME of Cc1ncsc1-c1ccc(CNC(=O)[C@@H]2C[C@@H](O)CN2C(=O)[C@@H](NC(=O)COCCCOCCCCCOc2ccc(N3C(=S)N(c4cnc(C#N)c(C(F)(F)F)c4)C(=O)C3(C)C)cc2)C(C)(C)C)cc1
Response given: 4

----------
# tgt: von Hippel-Lindau disease tumor suppressor/Androgen receptor (Homo sapiens, UniProt P10275+P40337)
# method_notes: Protac activity at E3 ubiquitin-protein ligase/AR in human VCAP cells assessed as induction of AR degradation after 24 hrs by ELISA relative to control
# Format: cell-based
readout_type: Emax

Sample records with Emax:
Challenge: Output Emax of Cc1ncsc1-c1ccc(CNC(=O)[C@@H]2C[C@@H](O)CN2C(=O)[C@@H](NC(=O)COCCCOCCCCOc2ccc(N3C(=S)N(c4ccc(C#N)c(Cl)c4)C(=O)C3(C)C)cc2)C(C)(C)C)cc1
Response given: > 71%

Challenge: Output Emax of Cc1ncsc1-c1ccc([C@H](C)NC(=O)[C@@H]2C[C@@H](O)CN2C(=O)[C@@H](NC(=O)COCCCOCCCCCOc2c(F)cc(N3C(=S)N(c4ccc(C#N)c(C(F)(F)F)c4)C(=O)C3(C)C)cc2F)C(C)(C)C)cc1
Response given: < 70%

In the following, a different compound is considered.
Challenge: Output Emax of Cc1ncsc1-c1ccc(CNC(=O)[C@@H]2C[C@@H](O)CN2C(=O)[C@@H](NC(=O)COCCCOCCCCOc2ccc(N3C(=S)N(c4cnc(C#N)c(C(F)(F)F)c4)C(=O)C3(C)C)cc2)C(C)(C)C)cc1
Response given: > 71%
